The origin of these recorded values is paper PMC7529893.

percent inhibition (TR-FRET) overview
- target: MAGE-A11:PCF11 interaction (GST-MAGE-A11 and FAM-PCF11_4) (Homo sapiens, UniProt P43364)
- Construct: GST-MAGE-A11 MHD (human MAGE-A11 MHD amino acid 218-429); made in house; host or cells: E. coli BL21(DE3)
- assay method text: TR-FRET primary / single point screen at 15 µM
- Format: binding
- experimental setup: single point TR-FRET screening of 797 quinoline compounds against MAGE-A11:PCF11
I only need the number, thanks.

Clc1ccc2c(NC3CCN(Cc4ccc5ccccc5c4)CC3)ccnc2c1 [SJ000523100] : 4.171

Ask: Item CCc1ccc2ncc(C(=O)c3ccccc3)c(N3CCN(CC)CC3)c2c1 [SJ000247281] has what recorded percent inhibition (TR-FRET)?
Result: -2.261

Ask: Item COc1ccc2nc3cc(Cl)ccc3c(NCCCNCc3cccnc3)c2c1 [SJ000520986] has what recorded percent inhibition (TR-FRET)?
Result: -408.98

Ask: Item CCCN(CCCCNc1ccnc2cc(Cl)ccc12)Cc1c(F)cccc1OC [SJ000311203] has what recorded percent inhibition (TR-FRET)?
Result: 6.844

Ask: Item CCOc1ccc(C(=O)c2cnc3ccc(C)cc3c2N2CCN(CC)CC2)cc1 [SJ000247339] has what recorded percent inhibition (TR-FRET)?
Result: -10.8066

---

percent inhibition (TR-FRET) overview
- target: MAGE-A11:PCF11 interaction (GST-MAGE-A11 and FAM-PCF11_4) (Homo sapiens)
- Construct: GST-MAGE-A11 MHD (human MAGE-A11 MHD amino acid 218-429); made in house; host or cells: E. coli BL21(DE3)
- Sequence (P43364 218-429): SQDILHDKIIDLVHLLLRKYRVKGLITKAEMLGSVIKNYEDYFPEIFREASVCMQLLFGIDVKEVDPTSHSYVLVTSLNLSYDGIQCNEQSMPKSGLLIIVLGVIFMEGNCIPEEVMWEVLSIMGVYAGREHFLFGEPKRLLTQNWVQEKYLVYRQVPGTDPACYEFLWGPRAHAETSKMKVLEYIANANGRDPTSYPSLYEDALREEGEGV
- assay method text: TR-FRET primary / single point screen at 15 µM
- Format: binding
- experimental setup: single point TR-FRET screening of quinoline compounds against MAGE-A11:PCF11; 15 µM
I only need the number, thanks.

CCOC(=O)c1cnc2c(OC)cccc2c1NCCCN1CCOCC1 : 3.635

Ask: Item "FC(F)(F)c1ccc2c(NCCCNCc3nccs3)ccnc2c1" has what recorded percent inhibition (TR-FRET)?
Result: 7.779

Ask: Item "Clc1ccc2c(NCCCN(Cc3ccccc3)Cc3ccc(Br)s3)ccnc2c1" has what recorded percent inhibition (TR-FRET)?
Result: 27.4987

Ask: Item "CCCN(CCCNc1ccnc2cc(Cl)ccc12)Cc1ccc2ccccc2c1" has what recorded percent inhibition (TR-FRET)?
Result: 32.8503

Ask: Item "Clc1ccc2c(NCCCNCc3ccco3)ccnc2c1" has what recorded percent inhibition (TR-FRET)?
Result: 6.349

Ask: Item "Clc1cccc(-c2ccc(CNCCCNc3ccnc4cc(Cl)ccc34)o2)c1" has what recorded percent inhibition (TR-FRET)?
Result: 33.5128

Ask: Item "Clc1ccc2c(NCCCN(Cc3ccccc3)Cc3cc4ccccc4o3)ccnc2c1" has what recorded percent inhibition (TR-FRET)?
Result: 5.6

Ask: Item "CCCN(CCC)CCCNc1ccnc2cc(C(F)(F)F)ccc12" has what recorded percent inhibition (TR-FRET)?
Result: 15.6779

Ask: Item "CCCN(CCCNc1ccnc2cc(Cl)ccc12)Cc1ccc(OC(F)(F)F)cc1" has what recorded percent inhibition (TR-FRET)?
Result: 22.7376

---

- target: MAGE-A11:PCF11 interaction (GST-MAGE-A11 and FAM-PCF11_4) (Homo sapiens, UniProt P43364)
- Construct: GST-MAGE-A11 MHD (human MAGE-A11 MHD amino acid 218-429); made in house; host or cells: E. coli BL21(DE3)
- assay method text: TR-FRET primary / single point screen at 15 µM
- Assay type: binding
- experimental setup: single point TR-FRET screening of 797 quinoline compounds against MAGE-A11:PCF11
reported metric: percent inhibition (TR-FRET)
I only need the number, thanks.

Answered examples (3):
CCCCNCCCNc1c2ccc(Cl)cc2nc2ccc(OC)cc12 [SJ000520995] : -405.549
Fc1cccc(CN(CCCCNc2ccnc3cc(Cl)ccc23)Cc2ccccc2)c1 [SJ000361199] : 28.3389
COc1ccc2nc3cc(Cl)ccc3c(NCCCNCc3ccc(F)cc3)c2c1 [SJ000523035] : -398.22

Ask: Request - read-out percent inhibition (TR-FRET) | tested on MAGE-A11:PCF11 interaction (GST-MAGE-A11 and FAM-PCF11_4) (Homo sapiens, UniProt P43364) | molecule COc1ccc(N2CCN(c3c(S(=O)(=O)c4ccccc4)cnc4ccc(OC)cc34)CC2)cc1 [SJ000117071]
Result: -32.6681

Ask: Request - read-out percent inhibition (TR-FRET) | tested on MAGE-A11:PCF11 interaction (GST-MAGE-A11 and FAM-PCF11_4) (Homo sapiens, UniProt P43364) | molecule COc1ccc2nc3cc(Cl)ccc3c(NCCCNCc3c(F)cccc3OC)c2c1 [SJ000520915]
Result: -298.775

---

- target: MAGE-A11:PCF11 interaction (GST-MAGE-A11 MHD and FAM-PCF11_4) (Homo sapiens)
- Construct: GST-MAGE-A11 MHD (human MAGE-A11 MHD amino acid 218-429); made in house; host or cells: E. coli BL21(DE3)
- Sequence (P43364 218-429): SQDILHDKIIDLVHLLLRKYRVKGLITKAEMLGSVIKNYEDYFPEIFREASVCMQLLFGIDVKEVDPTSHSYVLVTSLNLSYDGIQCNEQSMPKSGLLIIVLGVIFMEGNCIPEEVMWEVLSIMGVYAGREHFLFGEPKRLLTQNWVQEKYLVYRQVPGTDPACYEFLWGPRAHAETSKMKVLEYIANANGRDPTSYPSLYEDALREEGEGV
- assay method text: TR-FRET dose response test of compounds for disruption of MAGE-A11:PCF11 binding
- experimental setup: Dose response TR-FRET screening of nine scaffold groups against MAGE-A11:PCF11; read-out: consensus IC50
pIC50: −log10 of the molar value.
Could you label it true if measured pIC50 is 5 or higher, and false otherwise?

Worked set:
CC(C)(C)c1ccc(-c2ccc3c(NCCCNCc4cccc5c4OCO5)ccnc3c2)cc1 : true
CCC(COC(C)=O)NC1=C(Cl)C(=O)c2ccccc2C1=O (centres unmarked) : false
Clc1ccc(Oc2ccc3c(NCCCNCc4cccc5c4OCO5)ccnc3c2)cc1 : false
COc1ccc(F)cc1CNCCCNc1ccnc2cc(CCc3ccccc3)ccc12 : false
COc1ccc(Oc2ccc3c(NCCCNCc4cc(F)ccc4OC)ccnc3c2)cc1 : false

Okay, next one:
Ask: Dear colleague, could you confirm whether "c1ccc(Oc2ccc3c(NCCCNCc4cccc5c4OCO5)ccnc3c2)cc1" has pIC50 at or above 5?
Result: false

---

pIC50 overview
- target: MAGE-A11:PCF11 interaction (GST-MAGE-A11 MHD and FAM-PCF11_4) (Homo sapiens)
- Construct: GST-MAGE-A11 MHD (human MAGE-A11 MHD amino acid 218-429); made in house; host or cells: E. coli BL21(DE3)
- Sequence (P43364 218-429): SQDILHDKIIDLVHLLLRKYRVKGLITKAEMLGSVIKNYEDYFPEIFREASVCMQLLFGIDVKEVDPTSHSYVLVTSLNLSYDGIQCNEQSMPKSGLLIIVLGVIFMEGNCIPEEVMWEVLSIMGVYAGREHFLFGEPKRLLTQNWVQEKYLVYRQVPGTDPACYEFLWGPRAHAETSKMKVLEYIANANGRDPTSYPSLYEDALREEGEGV
- assay method text: TR-FRET dose response test of compounds for disruption of MAGE-A11:PCF11 binding
- experimental setup: Dose response TR-FRET screening of nine scaffold groups against MAGE-A11:PCF11; read-out: consensus IC50
Hey, just a heads up that pIC50 is the negative log base 10 of the concentration in molar.

O=S(=O)(c1ccccc1)c1nc(-c2ccc(Br)cc2)oc1N1CCOCC1 [SJ000244320-1] : 5.06
c1ccc(CCc2ccc3c(NCCCNCc4cccc5c4OCO5)ccnc3c2)cc1 [SJ000311257-1] : 4.21
Cc1ccc(S(=O)(=O)c2nc(-c3ccccc3Cl)oc2N2CCOCC2)cc1 [SJ000230856-1] : 5.36

Ask: Item Cc1ccc(S(=O)(=O)c2nc(-c3cccc([N+](=O)[O-])c3)oc2N2CCOCC2)cc1 [SJ000027482-1] has what recorded pIC50?
Result: 5.02

Ask: Item COc1cc(NCc2ccc3nc(N)nc(N)c3c2C)cc(OC)c1OC [SJ000574313-7] has what recorded pIC50?
Result: 5.02

Ask: Item COc1ccc(F)cc1CNCCCNc1ccnc2cc(Cc3ccc(F)cc3Cl)ccc12 [SJ000311325-1] has what recorded pIC50?
Result: 4.75

Ask: Item Clc1ccc2c(NCCCNCc3ccc4[nH]ccc4c3)ccnc2c1 [SJ000520909-2] has what recorded pIC50?
Result: 4.17
